Cited source: the supplement of paper PMC9233669

tested on: biotinyl-Trp-oxazolone; assay: self-aminoacylation, catalytic enhancement (BWO) (fold over background); higher = more active; k-Seq, kA / k0A0; sequences stand for … in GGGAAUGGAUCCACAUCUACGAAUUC…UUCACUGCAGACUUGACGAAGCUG
This sample holds only a part of the variants without activity.
Lab note: anything with self-aminoacylation at or over 4 counts as 1.0; the rest go in 0.0.

Say whether AUUCACGUAGGUCAUCGGGUA [Fam2.2 aminoacylation ribozyme variant] shows self-aminoacylation of 4 or more. 0.0

Decide: self-aminoacylation of CCUCACUUCAAGGAAUCGGUC [Fam1B.1 aminoacylation ribozyme variant] >= 4? 1.0

API: above_or_equal(metric=self-aminoacylation, cutoff=4) for item AGUAACCUAGGUCAUCGGGUG [Fam2.2 aminoacylation ribozyme variant] 1.0

Textbook exercise: given the entry AUUACCUUGGUCAUCGAGUGU [Fam2.1 aminoacylation ribozyme variant] , state whether its self-aminoacylation is greater than or equal to 4. 0.0

In plain terms: is recorded self-aminoacylation at least 4 for AUUCACCUAGAUCAUAGGGUG [Fam2.2 aminoacylation ribozyme variant] ? 0.0

Assess whether reported self-aminoacylation for AUUCACCUAUGUCAUCCGGUG [Fam2.2 aminoacylation ribozyme variant] sits at 4 or higher. 1.0

Does the sequence AAGUUUGCUAAUAGUCGCCGG [Fam3.1 aminoacylation ribozyme variant] have recorded self-aminoacylation that is 4 or more? 1.0

Can AUUACCCUGGUCUUCGAGUGA [Fam2.1 aminoacylation ribozyme variant] be said to have self-aminoacylation at or above 4? 1.0

Reported self-aminoacylation reaches at least 4 for CCACUUCAAACAAUCGGUGUG [Fam1A.1 aminoacylation ribozyme variant] ? 1.0

Record GUUCACCUAGGUCAGCGGGUG [Fam2.2 aminoacylation ribozyme variant] ; criterion: self-aminoacylation no lower than 4. Met? 1.0

Check if self-aminoacylation >= 4 (inclusive). Item: CUACCUCAAAAAAUCGGUCUG [Fam1A.1 aminoacylation ribozyme variant] 0.0

Textbook exercise: given the entry CAAGACUUCAAGCAAUCGGUC [Fam1B.1 aminoacylation ribozyme variant] , state whether its self-aminoacylation is greater than or equal to 4. 1.0

For this sequence, is measured self-aminoacylation 4 or higher? CUACUUCAAACAAACGGUCUG [Fam1A.1 aminoacylation ribozyme variant] 0.0

Dear colleague, could you confirm whether CCACACUUCAAGGAAUCGGCC [Fam1B.1 aminoacylation ribozyme variant] has self-aminoacylation at or above 4? 1.0

Is reported self-aminoacylation greater than or equal to 4 here: GACUUUGCUAAUAGUCGCAAG [Fam3.1 aminoacylation ribozyme variant] 0.0

Threshold query (self-aminoacylation >= 4) on CCACAUUGCAAGCAAUCGGUC [Fam1B.1 aminoacylation ribozyme variant] 0.0

I'd appreciate it if you could say whether GUUCACCUAGGUCAUCGAGUG [Fam2.2 aminoacylation ribozyme variant] has self-aminoacylation at least equal to 4. 1.0
